# System: human recombinant ATX (Homo sapiens, UniProt Q13822)
# Experiment: Autotaxin (ATX) activity Quanta Red assay
# Assay type: biochemical
# Condition set: read-out: Activity (ATX activity, Quanta Red assay; IC50)
# Protocol: The reaction was stopped after 2 hours with a 20 μL addition of Quanta Red Stop solution (1:20 dilution in distilled water). The above-described mixture with DMSO alone was used as a positive control whereas that with DMSO alone without ATX was taken as a negative control. Fluorescence was determined in a BMG Labtech Pherastar plus plate reader ([…]). Data were analysed using Excel fit software. IC50 values were determined in duplicate.
Reported pIC50 by item:
Keep it numeric: pIC50 is minus log10 of the concentration in mol/L.

Sample records with pIC50:
# Molecule, pIC50
data = [
    ("C[C@H](NC(=O)CCc1nc2cccnc2n1Cc1ccc(OC(F)(F)F)cc1)c1ccc(F)cc1", 8.70),
    ("COc1ccc(CNC(=O)CCc2nc3cc(C)cnc3n2Cc2ccc(OC(F)(F)F)cc2)cc1", 7.42),
    ("O=C(CCc1nc2cccnc2n1Cc1ccc(F)c(F)c1)NC(CO)c1ccc(F)cc1 (stereo not shown)", 7.66),
    ("C[C@H](NC(=O)CCc1nc2cccnc2n1Cc1ccc(Br)cc1)c1ccc(F)cc1", 8.52),
]

I'm curious: which pIC50 was measured for O=C(CCc1nc2cccnc2n1Cc1ccc(OC(F)(F)F)cc1)N[C@@H]1c2ccccc2C[C@@H]1O tested on human recombinant ATX (Homo sapiens, UniProt Q13822)?
9.00
